measured-quantity: melting point (°C)
Just the number in °C, nothing appended.

response.value for CC[C@H]1OC(=O)[C@H](C)[C@@H](O[C@@H]2C[C@](C)(OC)[C@H](O)C(C)O2)[C@H](C)[C@@H](O[C@@H]2O[C@H](C)C[C@@H](N(C)C)[C@H]2O)[C@](C)(O)C[C@@H](C)CN(CCCNC(=O)[C@@]2(O)CCC3C4CCC5=CC(=O)CC[C@]5(C)C4[C@@H](O)C[C@@]32C)[C@H](C)[C@@H](O)[C@]1(C)O (some centres unmarked) (field: melting point) = 144

----------
Give measured melting point for each item. Keep answers brief.

The value of melting point measured for the compound CC[C@H]1OC(=O)[C@H](C)[C@@H](O[C@@H]2C[C@](C)(OC)[C@H](O)C(C)O2)[C@H](C)[C@@H](O[C@@H]2O[C@H](C)C[C@@H](N(C)C)[C@H]2OC(=O)CCCCOC(=O)[C@@]2(O)[C@H](C)CC3C4C[C@H](F)C5=CC(=O)C=C[C@]5(C)[C@@]4(Cl)[C@@H](O)C[C@@]32C)[C@](C)(O)C[C@@H](C)CN(C)[C@H](C)[C@@H](O)[C@]1(C)O (stereo partly shown) turned out to be 91 to 99 °C

Entry CC[C@H]1OC(=O)[C@H](C)[C@@H](O)[C@H](C)[C@@H](O[C@@H]2O[C@H](C)C[C@@H](N(C)C)[C@H]2O)[C@](C)(O)C[C@@H](C)CN(CCCNC(=O)[C@@]2(O)CCC3C4CCC5=CC(=O)CC[C@]5(C)C4[C@@H](O)C[C@@]32C)[C@H](C)[C@@H](O)[C@]1(C)O (stereo partly shown) ; melting point = 160 to 161 °C

melting point in this record for CC[C@H]1OC(=O)[C@H](C)[C@@H](O)[C@H](C)C(O[C@@H]2O[C@H](C)C[C@@H](N(C)C)[C@H]2O)[C@](C)(O)C[C@@H](C)CN(CCCNC(=O)[C@@]2(O)[C@H](C)CC3C4C[C@H](F)C5=CC(=O)C=C[C@]5(C)C4[C@@H](O)C[C@@]32C)[C@H](C)[C@@H](O)[C@]1(C)O (stereo partly shown) : 202 to 204 °C

melting point measured on CC[C@H]1OC(=O)[C@H](C)[C@@H](O)[C@H](C)[C@@H](O[C@@H]2O[C@H](C)C[C@@H](N(C)C)[C@H]2O)[C@](C)(O)C[C@@H](C)CN(CCCNC(=O)[C@@]2(O)[C@H](C)CC3C4C[C@H](F)C5=CC(=O)C=C[C@]5(C)[C@@]4(F)[C@@H](O)C[C@@]32C)[C@H](C)[C@@H](O)[C@]1(C)O (stereo partly shown) = 182 °C

Reported melting point for CC[C@H]1OC(=O)[C@H](C)[C@@H](O[C@@H]2C[C@](C)(OC)[C@H](O)C(C)O2)[C@H](C)[C@@H](O[C@@H]2O[C@H](C)C[C@@H](N(C)C)[C@H]2O)[C@](C)(O)C[C@@H](C)CN(CCCNC(=O)[C@@]2(O)[C@H](C)CC3C4CCC5=CC(=O)C=C[C@]5(C)[C@@]4(F)[C@@H](O)C[C@@]32C)[C@H](C)[C@@H](O)[C@]1(C)O (stereo partly shown) was 170 to 175 °C

Documented melting point of CC[C@H]1OC(=O)[C@H](C)[C@@H](O[C@@H]2C[C@](C)(OC)[C@H](O)C(C)O2)[C@H](C)[C@@H](O[C@@H]2O[C@H](C)C[C@@H](N(C)C)[C@H]2O)[C@](C)(O)C[C@@H](C)CN(CCCNC(=O)[C@@]23OC(C)(C)O[C@@H]2CC2C4C[C@H](F)C5=CC(=O)C=C[C@]5(C)[C@@]4(F)[C@@H](O)C[C@@]23C)[C@H](C)[C@@H](O)[C@]1(C)O (stereo partly shown) : 178 °C

Notebook: CC[C@H]1OC(=O)[C@H](C)[C@@H](O)[C@H](C)[C@@H](O[C@@H]2O[C@H](C)C[C@@H](N(C)C)[C@H]2OC(=O)CCCCOC(=O)[C@@]2(O)[C@H](C)CC3C4C[C@H](F)C5=CC(=O)C=C[C@]5(C)[C@@]4(Cl)[C@@H](O)C[C@@]32C)[C@](C)(O)C[C@@H](C)CN(C)[C@H](C)[C@@H](O)[C@]1(C)O (stereo partly shown) , melting point read as 130 to 132 °C

Quick note, melting point for CC[C@H]1OC(=O)[C@H](C)[C@@H](O)[C@H](C)[C@@H](O[C@@H]2O[C@H](C)C[C@@H](N(C)C)[C@H]2O)[C@](C)(O)C[C@@H](C)CN(CCCNC(=O)[C@@]2(O)[C@H](C)CC3C4CCC5=CC(=O)C=C[C@]5(C)[C@@]4(F)[C@@H](O)C[C@@]32C)[C@H](C)[C@@H](O)[C@]1(C)O (stereo partly shown) landed at 260 to 265 °C

Recorded melting point (compound CC[C@H]1OC(=O)C(C)[C@@H](O)[C@H](C)[C@@H](O[C@@H]2O[C@H](C)C[C@@H](N(C)C)[C@H]2O)[C@](C)(O)C[C@@H](C)CN(CCCNC(=O)[C@@]2(O)[C@H](C)CC3C4C[C@H](F)C5=CC(=O)C=C[C@]5(C)[C@@]4(Cl)[C@@H](O)C[C@@]32C)[C@H](C)[C@@H](O)[C@]1(C)O (stereo partly shown) ): 130 to 132 °C

Entry CC[C@H]1OC(=O)[C@H](C)[C@@H](O[C@@H]2C[C@](C)(OC)[C@H](O)C(C)O2)[C@H](C)[C@@H](O[C@@H]2O[C@H](C)C[C@@H](N(C)C)[C@H]2OC(=O)CCCCOC(=O)[C@@]2(O)[C@H](C)CC3C4CCC5=CC(=O)C=C[C@]5(C)[C@@]4(F)[C@@H](O)C[C@@]32C)[C@](C)(O)C[C@@H](C)CN(C)[C@H](C)[C@@H](O)[C@]1(C)O (stereo partly shown) — recorded melting point = 161 to 168 °C
